The reported measurements were obtained from PubChem BioAssay (Tox21).

assay: A CellTox Green Cytotoxicity Assay to monitor cytotoxicity in HepG2 cells - 32 hour (AID 1224883); settings: CellTox Green fluorescence; series mostly up to 76.8 µM; further: nearly all actives have a fitted effect of over 50% in size
Results filed as inconclusive are left out. Calls of active or inactive are those of the source. The call rests on the fitted dose curve; in most records, active means well fitted activation curve with a large enough effect in the repeat runs; inconclusive means weak or mixed curves; inactive means flat fitted curve, though single readings scatter.
Permitted responses: YES (active), NO (inactive)

[[record]]
molecule = "Clc1cccc(C(Cl)(Cl)Cl)n1"
category_label = "YES"


Which outcome did this test record for the molecule CSc1nc(NC(C)C)nc(NC(C)C)n1 ?
NO

Which outcome did this test record for the molecule CC1(C)C(C(=O)OC(C#N)c2cccc(Oc3ccccc3)c2)C1(C)C (stereo unspecified) ?
NO

Which outcome did this test record for the molecule Brc1ccc(Br)cc1 ?
NO

Which outcome did this test record for the molecule CC1(C)Cc2cccc(O)c2O1 ?
NO

Which outcome did this test record for the molecule CCC1(c2ccc(N)cc2)CCC(=O)NC1=O (stereo unspecified) ?
NO

Which outcome did this test record for the molecule CCC/C=N/O ?
NO

Which outcome did this test record for the molecule O=C1CCCO1 ?
NO

* * *

test: A CellTox Green Cytotoxicity Assay to monitor cytotoxicity in HepG2 cells - 32 hour (AID 1224883); conditions: CellTox Green fluorescence; series mostly up to 76.8 µM; further: nearly all actives have a fitted effect of over 50% in size
Results filed as inconclusive are left out. The source made the active and inactive calls. Calls come from the whole dose curve; as a rule, active = well fitted activation curve with a large enough effect in the repeat runs; inconclusive = weak or mixed curves; inactive = flat fitted curve, though single readings scatter.
reported.metric: outcome

[[record]]
compound = "O=NN(c1ccccc1)c1ccccc1"
result_value = "inactive"

[[record]]
compound = "CC(C)(c1ccc(OCC2CO2)cc1)c1ccc(OCC2CO2)cc1 (stereo not drawn)"
result_value = "inactive"

[[record]]
compound = "CC(C)(O)C(=O)Nc1ccc([N+](=O)[O-])c(C(F)(F)F)c1"
result_value = "inactive"

